Attribution: PubChem BioAssay AID504636

Measured target: ATP-dependent 6-phosphofructokinase (Trypanosoma brucei brucei) (UniProt O15648)
Sequence (O15648 whole entry, looked up): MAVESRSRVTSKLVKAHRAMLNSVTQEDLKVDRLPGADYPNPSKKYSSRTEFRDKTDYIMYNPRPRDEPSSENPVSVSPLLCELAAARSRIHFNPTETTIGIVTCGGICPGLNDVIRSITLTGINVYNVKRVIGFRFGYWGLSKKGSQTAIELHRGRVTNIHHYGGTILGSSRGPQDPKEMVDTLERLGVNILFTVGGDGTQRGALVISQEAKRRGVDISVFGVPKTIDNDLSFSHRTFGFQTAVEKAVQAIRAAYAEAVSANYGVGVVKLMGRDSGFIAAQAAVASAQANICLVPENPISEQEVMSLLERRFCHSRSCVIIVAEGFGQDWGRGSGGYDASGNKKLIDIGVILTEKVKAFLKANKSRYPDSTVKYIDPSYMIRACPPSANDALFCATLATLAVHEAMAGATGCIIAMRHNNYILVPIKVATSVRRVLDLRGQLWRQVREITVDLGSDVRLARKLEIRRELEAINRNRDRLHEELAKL
Assay text: Tb PFK orthogonal confirmatory assay using ATP depletion (Kinase-Glo Plus) as an alternative measure of Tb PFK activity: Hit Validation; note: nearly all actives have a fitted effect of over 60% in size
Test parameters: Tb PFK enzyme, Kinase-Glo Plus luminescence; series mostly up to 57.5 µM
About 490 (45%) of roughly 1,100 compounds were called active. Another 33% or so got no clear call; they are omitted. Calls come from the whole dose curve. So high a share suggests a set chosen from earlier hits. This is one part of a sample in which actives are shown more often than they occur.
Please state which outcome applies, choosing from y (active), n (inactive)

Use these answered entries as a reference point.
Molecule	Class assignment
Cc1nn(Cc2ccc(Cl)c(Cl)c2)c(C)c1NC(=O)c1cc(C2CC2)on1	y
O=c1[nH]c(=S)[nH]c2[nH]c(=S)[nH]c12	y
N#Cc1cccc(CSc2ncnc(N)n2)c1	y
FC(F)(F)C1CCCN(c2nsc3ccccc23)C1 (stereo unspecified)	y
O=c1[nH]c2ccccc2n2c(-c3ccccc3)nnc12	y
Cc1ccc(-c2nn(-c3ccccc3)cc2/C=C2\SC(=S)N(CCCCCC(=O)O)C2=O)o1	y
C=C(C)C(=O)Nc1cccc(C2=NOC3(C2)C[C@H](C(N)=O)N(C(=O)C(c2ccccc2)c2ccccc2)C3)c1 (stereo partly specified)	y
OCCN1CCN(C(=S)c2ccc(-c3ccccc3)cc2)CC1	y
O=C(NCc1ccc(Cl)c(Cl)c1)c1cccnc1	y
COC(=O)CC(=O)N1CCN(c2ccc(Cl)c(Cl)c2)CC1	y

Hi team, can someone confirm the assay call for `CCc1ccc(NC(=O)C(=O)NNC(=O)c2cccs2)cc1` ?
n

---

Measured target: ATP-dependent 6-phosphofructokinase (Trypanosoma brucei brucei) (UniProt O15648)
Assay text: Tb PFK orthogonal confirmatory assay using ATP depletion (Kinase-Glo Plus) as an alternative measure of Tb PFK activity: Hit Validation; note: nearly all actives have a fitted effect of over 60% in size
Test parameters: Tb PFK enzyme, Kinase-Glo Plus luminescence; series mostly up to 57.5 µM
About 490 (45%) of roughly 1,100 compounds were called active. Not shown: some 33% with an inconclusive outcome. Calls follow the shape of the full dose curve. The set was probably picked from earlier hits. The full list was thinned out, with actives kept by preference.
Please state which outcome applies, choosing from active, inactive

Compound	Class assignment
Cc1ccc(C)c(-c2nnc(NC(=O)CS(=O)(=O)c3ccccc3)o2)c1	inactive

Hi team, can someone confirm the assay call for OC(CNCc1ccc(Cl)c(Cl)c1)c1ccccc1 (stereo not given) ?
active

Hi team, can someone confirm the assay call for Nc1nc(SCc2ccc([N+](=O)[O-])cc2)c2ncn(C3OC(CO)C(O)C3O)c2n1 (stereo not given) ?
active

Hi team, can someone confirm the assay call for `Cn1sc(=O)c2cc(S(=O)(=O)NC3CC3)ccc21` ?
active

---

Measured target: ATP-dependent 6-phosphofructokinase (Trypanosoma brucei brucei)
Assay text: Tb PFK orthogonal confirmatory assay using ATP depletion (Kinase-Glo Plus) as an alternative measure of Tb PFK activity: Hit Validation; note: nearly all actives have a fitted effect of over 60% in size
Test parameters: Tb PFK enzyme, Kinase-Glo Plus luminescence; series mostly up to 57.5 µM
The whole screen tested about 1,100 compounds, of which about 490 (45%) were called active. Another 33% or so got no clear call; they are omitted. Calls come from the whole dose curve. The set was probably picked from earlier hits. This is one part of a sample in which actives are shown more often than they occur.
Please state which outcome applies, choosing from YES for active, NO for inactive

Use these answered entries as a reference point.
Smiles code	Class assignment
O=C(Cc1ccc([N+](=O)[O-])cc1)N/N=C/c1ccco1	YES
CCn1nc(C(=O)NNS(=O)(=O)c2cc(/C=C/C(=O)O)cc(OC)c2OC)c2ccccc2c1=O	NO
N/C(=N\OC(=O)Nc1ccc(Cl)c(Cl)c1)c1ncc(C(F)(F)F)cc1Cl	YES

Hi team, can someone confirm the assay call for `O=c1ccnc(Nc2ccc(Cl)cc2)[nH]1` ?
YES

Hi team, can someone confirm the assay call for `CC(C)(C)c1nnc(NC(=O)C2c3ccccc3Oc3ccccc32)s1` ?
YES

Hi team, can someone confirm the assay call for `C=CC1=C(C(=O)O)N2C(=O)[C@@H](NC(=O)/C(=N\OCC(=O)O)c3csc(N)n3)[C@H]2SC1` ?
YES
